Lysis20 for assorted compounds
Test system: red blood cells
TEST_DETAILS: Red Blood Cell (RBC) Lysis Assay (lysis20)
Format: cell-based, sheep
CONDITION: concentration inducing 20% RBC lysis; sheep blood, 1 hour, 37 °C
Numeric answer only, unit µM assumed.

Previously resolved entries follow.
CCCCCCCCCCCCCCCC[P+](C)(C)CC[P+](C)(C)CCCCCCCCCCC [^MeP2P-16,16]; 125
CCCCCCCCCCCCCC[P+](CC)(CC)CC[P+](CC)(CC)CCCCCCCCCCCCCC [^EtP2P-14,14]; 8
CCCCCCCCCCC[P+](C)(C)CC[P+](C)(C)CCCCCCCCCCC [^MeP2P-11,11]; 16
CCCCCCCCCC[P+](CCCCCC[P+](CCCCCCCCCC)(c1ccccc1)c1ccccc1)(c1ccccc1)c1ccccc1 [^PhP6P-10,10, reference compound]; 8

Note: attention shifts to another entry.
Query string: Hello, I am looking for reported Lysis20 with red blood cells for CCCCCCCCCCCCCC[P+](CC[P+](CCCCCCCCCCCCCC)(C1CCCCC1)C1CCCCC1)(C1CCCCC1)C1CCCCC1 [^CyP2P-14,14] . Could you help?
Result string: 8

----------
Test system: MSSA (SH1000)
TEST_DETAILS: MIC against methicillin-susceptible S. aureus (MSSA)
Type: cell-based
CONDITION: Staphylococcus aureus; MSSA (SH1000); 72 hours, 37 °C; read-out: MIC
VALUE_KIND: MIC (µM)
Numeric answer only, unit µM assumed.

CCCCCCCCCCCC[P+](CC)(CC)CC[P+](CC)(CC)CCCCCCCCCCCC [^EtP2P-12,12]; 1

Query string: Param item = CCCCCCCCCCCC[P+](CC[P+](CCCCCCCCCCCC)(C1CCCCC1)C1CCCCC1)(C1CCCCC1)C1CCCCC1 [^CyP2P-12,12] ; retrieve measured MIC.
Result string: 2

Query string: Param item = CCCCCCCCCC[P+](C)(C)CC[P+](C)(C)CCCCCCCCCC [^MeP2P-10,10] ; retrieve measured MIC.
Result string: 2

Query string: Param item = CCCCCCCCCCCCC[P+](CC[P+](CCCCCCCCCCCCC)(C1CCCCC1)C1CCCCC1)(C1CCCCC1)C1CCCCC1 [^CyP2P-13,13] ; retrieve measured MIC.
Result string: 2

----------
MIC for assorted compounds
Test system: MSSA (SH1000)
TEST_DETAILS: MIC against methicillin-susceptible S. aureus (MSSA)
Format: cell-based
CONDITION: Staphylococcus aureus; MSSA (SH1000); 72 hours, 37 °C; read-out: MIC
Numeric answer only, unit µM assumed.

Previously resolved entries follow.
CCCCCCCC[P+](CC)(CC)CC[P+](CC)(CC)CCCCCCCC; 63
CCCCCCCCCCCCCC[P+](CC[P+](CCCCCCCCCCCCCC)(C1CCCCC1)C1CCCCC1)(C1CCCCC1)C1CCCCC1; 4
CCCCCCCCCCCCCC[P+](C)(C)CC[P+](C)(C)CCCCCCCCCCC; 8
CCCCCCCCCC[P+](CC[P+](CCCCCCCCCC)(c1ccccc1)c1ccccc1)(c1ccccc1)c1ccccc1 [^PhP2P-10,10, reference compound]; 1
CCCCCCCCCCC[P+](CC[P+](CCCCCCCCCCC)(C1CCCCC1)C1CCCCC1)(C1CCCCC1)C1CCCCC1; 1

Query string: Param item = CCCCCCCCCCCCCCCC[P+](C)(C)CC[P+](C)(C)CCCCCCCCCCC ; retrieve measured MIC.
Result string: 32

Query string: Param item = CCCCCCCCCCCCCCCC[P+](CC[P+](CCCCCCCCCCCCCCCC)(C1CCCCC1)C1CCCCC1)(C1CCCCC1)C1CCCCC1 ; retrieve measured MIC.
Result string: 8
